Values from patent US12310975B2

target: UniProt P41182; experiment: Immunofluorescence high content imaging of BCL6 degradation in T47D cells; format: cell-based; details: T47D
VALUE_KIND: Dmax

{"MOLECULE": "CNC(=O)COc1cc2cc(Nc3nc(N4CCC5(CC4)CCN(C4CCN(c6cccc7c6C(=O)N(C6CCC(=O)NC6=O)C7=O)CC4)C5)ncc3Cl)ccc2n(C(C)C)c1=O (centres unmarked) [compound 520]", "Dmax": "< 50%"}
{"MOLECULE": "CC(=O)COc1cc2cc(Nc3nc(N4CCC(N5CCC(Oc6ccc7c(c6)C(=O)N(C6CCC(=O)NC6=O)C7=O)C5)CC4)ncc3Cl)ccc2n(C)c1=O (centres unmarked) [compound 177]", "Dmax": "< 50%"}

Could you tell me Dmax for each of these molecules? They are listed below.
1. Cn1c(=O)n(CCC(C)(C)O)c2cc(Nc3nc(N4CCC(CN5CCN(c6cccc7c6C(=O)N(C6CCC(=O)NC6=O)C7=O)CC5)CC4)ncc3Cl)ccc21 (centres unmarked) [compound 492]
2. CNC(=O)COc1cc2cc(Nc3nc(N4CCC(CN5CCC6(CC5)CCN(c5ccc7c(c5)C(=O)N(C5CCC(=O)NC5=O)C7=O)C6)CC4)ncc3Cl)ccc2n(C(C)C)c1=O (centres unmarked) [compound 489]
3. CNC(=O)COc1cc2cc(Nc3nc(N4CCC5(CCN(CC6CCN(c7ccc8c(c7)C(=O)N(C7CCC(=O)NC7=O)C8=O)CC6)CC5)C4)ncc3Cl)ccc2n(C(C)C)c1=O (centres unmarked) [compound 490]

1. 50 to 70%
2. 50 to 70%
3. 50 to 70%

* * *

target: BCL6 (Homo sapiens (Human), UniProt P41182); test: Immunofluorescence high content imaging of BCL6 degradation in T47D cells; assay type: cell-based; conditions: class symbols A-D, read-out: EC50 (nM)*
VALUE_KIND: DC50

Examples with their reported DC50 follow.
{"COMPOUND": "CNC(=O)COc1cc2cc(Nc3nc(N4CCC(OCCOCCOCCOCCOCCNc5cccc6c5C(=O)N(C5CCC(=O)NC5=O)C6=O)CC4)ncc3Cl)ccc2n(C)c1=O (stereo not shown)", "DC50": "> 100 nM"}
{"COMPOUND": "CC(=O)COc1cc2cc(Nc3nc(N4CCN(CC5CCN(c6ccc7c(c6)C(=O)N(C6CCC(=O)NC6=O)C7=O)CC5)CC4)ncc3Cl)ccc2n(C)c1=O (stereo not shown)", "DC50": "10 to 50 nM"}
{"COMPOUND": "CN(C)C(=O)COc1cc2cc(Nc3nc(N4CCC(CN5CCN(c6ccc7c(c6)C(=O)N(C6CCC(=O)NC6=O)C7=O)CC5)CC4)ncc3Cl)ccc2n(C)c1=O (stereo not shown)", "DC50": "> 100 nM"}
{"COMPOUND": "CNC(=O)COc1cc2cc(Nc3nc(N4CCC(c5cn(CCOCCOCCOCCOCC(=O)N[C@H](C(=O)N6C[C@H](O)C[C@H]6C(=O)N[C@@H](C)c6ccc(-c7scnc7C)cc6)C(C)(C)C)nn5)CC4)ncc3Cl)ccc2n(C)c1=O", "DC50": "50 to 100 nM"}
{"COMPOUND": "CNC(=O)COc1cc2cc(Nc3nc(N4CCC(OCCOCCOCCCCOc5ccc(-c6ccc7c(c6)CN(C6CCC(=O)NC6=O)C7=O)cc5)CC4)ncc3Cl)ccc2n(C)c1=O (stereo not shown)", "DC50": "> 100 nM"}
{"COMPOUND": "CNC(=O)COc1cc2cc(Nc3nc(N4CCC(c5cn(CCOCCOCC(=O)N[C@H](C(=O)N6C[C@H](O)C[C@H]6C(=O)N[C@@H](C)c6ccc(-c7scnc7C)cc6)C(C)(C)C)nn5)CC4)ncc3Cl)ccc2n(C)c1=O", "DC50": "10 to 50 nM"}
{"COMPOUND": "CNC(=O)CCc1cc2cc(Nc3nc(N4CCC(CN5CCN(c6ccc7c(c6)C(=O)N(C6CCC(=O)NC6=O)C7=O)CC5)CC4)ncc3Cl)ccc2n(C)c1=O (stereo not shown)", "DC50": "> 100 nM"}
{"COMPOUND": "CNC(=O)COc1cc2cc(Nc3nc(N4CCC(c5ccc(OCCCOCCCOCCOc6ccc7c(c6)CN(C6CCC(=O)NC6=O)C7=O)cc5)CC4)ncc3Cl)ccc2n(C)c1=O (stereo not shown)", "DC50": "> 100 nM"}

Could you tell me DC50 for each of these compounds? They are listed below.
1. CNC(=O)COc1cc2cc(Nc3nc(N4CCC(Cc5cn(CCOc6ccc7c(c6)C(=O)N(C6CCC(=O)NC6=O)C7=O)nn5)CC4)ncc3Cl)ccc2n(C)c1=O (stereo not shown)
2. CNC(=O)COc1cc2cc(Nc3nc(N4CCC(OCCCCOc5cc(-c6scnc6C)ccc5CNC(=O)[C@@H]5C[C@@H](O)CN5C(=O)C(c5cc(C)no5)C(C)C)CC4)ncc3Cl)ccc2n(C)c1=O (stereo partly shown)

1: 10 to 50 nM; 2: > 100 nM

* * *

molecular target: BCL6 (Homo sapiens (Human)); test: Immunofluorescence high content imaging of BCL6 degradation in T47D cells; format: cell-based; settings: T47D, maximum, class symbols A-C
Exercise: state measured Dmax for each of the compounds provided.

Examples with their reported Dmax follow.
{"COMPOUND": "CC(=O)COc1cc2cc(Nc3nc(N4CCC(C(=O)N5CCN(c6ccc7c(c6)C(=O)N(C6CCC(=O)NC6=O)C7=O)CC5)CC4)ncc3Cl)ccc2n(C)c1=O (stereo not drawn)", "TEST_SYSTEM": "BCL6 (Homo sapiens (Human))", "Dmax": "≥ 70%"}
{"COMPOUND": "Cn1c(=O)cc(NC(C)(C)c2ncccn2)c2cc(Nc3nc(N4CCC(CN5CCN(c6ccc7c(c6)C(=O)N(C6CCC(=O)NC6=O)C7=O)CC5)CC4)ncc3Cl)ccc21 (stereo not drawn)", "TEST_SYSTEM": "BCL6 (Homo sapiens (Human))", "Dmax": "< 50%"}
{"COMPOUND": "CNC(=O)COc1cc2cc(Nc3nc(N4CCC(N(C)C5CCN(CC6CCN(c7ccc(C#Cc8ccc9c(c8)CN(C8CCC(=O)NC8=O)C9=O)cc7)CC6)CC5)CC4)ncc3Cl)ccc2n(C)c1=O (stereo not drawn)", "TEST_SYSTEM": "BCL6 (Homo sapiens (Human))", "Dmax": "< 50%"}
{"COMPOUND": "CC(=O)COc1cc2cc(Nc3nc(N4CCC(OC5CCN(c6ccc7c(c6)C(=O)N(C6CCC(=O)NC6=O)C7=O)CC5)CC4)ncc3Cl)ccc2n(C)c1=O (stereo not drawn)", "TEST_SYSTEM": "BCL6 (Homo sapiens (Human))", "Dmax": "< 50%"}

Could you tell me Dmax for each of these compounds? They are listed below.
1. CNC(=O)/C=C/c1cc2cc(Nc3nc(N4CCC(CN5CCN(c6ccc7c(c6)C(=O)N(C6CCC(=O)NC6=O)C7=O)CC5)CC4)ncc3Cl)ccc2n(C)c1=O (stereo not drawn)
2. CC(=O)COc1cc2cc(Nc3nc(N4CCC(CCOC5CN(c6ccc7c(c6)C(=O)N(C6CCC(=O)NC6=O)C7=O)C5)CC4)ncc3Cl)ccc2n(C)c1=O (stereo not drawn)
3. CC(=O)COc1cc2cc(Nc3nc(N4CCN(C(=O)C5CCN(c6ccc7c(c6)C(=O)N(C6CCC(=O)NC6=O)C7=O)CC5)CC4)ncc3Cl)ccc2n(C)c1=O (stereo not drawn)

["50 to 70%", "< 50%", "50 to 70%"]

Could you tell me Dmax for each of these compounds? They are listed below.
1. CC(=O)COc1cc2cc(Nc3nc(N4CCC(CN(C)CC#Cc5ccc6c(c5)C(=O)N(C5CCC(=O)NC5=O)C6=O)CC4)ncc3Cl)ccc2n(C)c1=O (stereo not drawn)
2. CNC(=O)COc1cc2cc(Nc3nc(N4CCC(OCCN5CCN(Cc6ccc(C#Cc7ccc8c(c7)CN(C7CCC(=O)NC7=O)C8=O)cc6)CC5)CC4)ncc3Cl)ccc2n(C)c1=O (stereo not drawn)
3. CNC(=O)COc1cc2cc(Nc3nc(N4CCC(CN5CCN(c6ccc7c(c6)C(=O)N(C6CCC(=O)NC6=O)C7=O)CC5)CC4)ncc3Cl)ccc2n(C)c1=O (stereo not drawn)
4. CNC(=O)COc1cc2cc(Nc3nc(N4CCC(OCCOCCOCCOCCCOc5ccc6c(c5)CN(C5CCC(=O)NC5=O)C6=O)CC4)ncc3Cl)ccc2n(C)c1=O (stereo not drawn)

["< 50%", "< 50%", "50 to 70%", "50 to 70%"]

* * *

molecular target: BCL6 (Homo sapiens (Human)); assay: Immunofluorescence high content imaging of BCL6 degradation in T47D cells; type: cell-based; details: T47D
VALUE_KIND: Dmax

Examples with their reported Dmax follow.
{"MOLECULE": "CNC(=O)COc1cc2cc(Nc3nc(N4CCN(CC5CCN(c6ccc(C(=O)NC7CCC(=O)NC7=O)cc6)CC5)CC4)ncc3Cl)ccc2n(C)c1=O (stereo not drawn)", "TEST_VALUE": "< 50%"}
{"MOLECULE": "CNC(=O)COc1cc2cc(Nc3nc(N4CCC[C@H](COc5cccc6c5C(=O)N(C5CCC(=O)NC5=O)C6=O)C4)ncc3Cl)ccc2n(CCC2COC2)c1=O (stereo partly drawn)", "TEST_VALUE": "≥ 70%"}

Then there is this molecule:
# input molecule: CNC(=O)COc1cc2cc(Nc3nc(N4CC5(CCN(CC6CCN(c7cccc8c7C(=O)N(C7CCC(=O)NC7=O)C8=O)CC6)C5)C4)ncc3Cl)ccc2n(C(C)C)c1=O (stereo not drawn) ; wanted: its Dmax
≥ 70%
